Where these numbers come from: ChEMBL document CHEMBL3612057

Measured inhibition of growth at 10 µM accompanies every entry in the list below.
Tested on: NCI-H226
Experiment: Cytotoxicity against human NCI-H226 cells assessed as growth inhibition at 10 uM after 24 hrs by SRB assay
Type: functional
Settings: NCI-H226, 24 h, read-out: GI
Dear colleague, please return just the value in %, with no unit written.

smiles: COc1nc(OC)nc(-c2cc(C(=O)c3ccc(Br)cc3)n3c2ccc2ccccc23)n1
subject_of_test: NCI-H226
inhibition of growth at 10 µM / %: 35

Return reported inhibition of growth at 10 µM; argument: `COc1ccc(C(=O)c2cc(-c3nc(OC)nc(OC)n3)c3ccccn23)cc1`
12

Item: `COc1nc(OC)nc(-c2cc(C(=O)c3ccc(Br)cc3)n3ccc4ccccc4c23)n1`
28

Item: `COc1nc(OC)nc(-c2cc(C(=O)c3ccc(Br)cc3)n3ccccc23)n1`
75
